# Test system: SUDHL10
# protocol: Anti-proliferative effect (CellTiter-Glo, 72 h), SUDHL10
# Format: cell-based
# experimental_setup: SUDHL10 cells, antiproliferation, 72 h, median, read-out: Antiproli SUDHL10 [M] (median)
assay_metric: IC50 (M)

compound	study_system	unit_abbrev	recorded_number
Cn1nc(CN2CCCCC2=O)c2c1COCCCCn1c(C(=O)O)c(CCCOc3cccc4ccccc34)c3cccc-2c31 (single isomer, unassigned; enantiomer 2)	SUDHL10	M	1.3e-05
Cn1nc(COc2ccc(NS(C)(=O)=O)cc2)c2c1COCCCCn1c(C(=O)O)c(CCCOc3cccc4ccccc34)c3cccc-2c31 (single isomer, unassigned; enantiomer 2)	SUDHL10	M	1.36e-05
Cn1nc(CN2CCCC2=O)c2c1COCCCCn1c(C(=O)O)c(CCCOc3cccc4ccccc34)c3cccc-2c31 (single isomer, unassigned; enantiomer 1)	SUDHL10	M	2.49e-05
Cn1nc(CN2CCCCC2)c2c1COCCCCn1c(C(=O)O)c(CCCOc3cccc4ccccc34)c3cccc-2c31 (single isomer, unassigned; enantiomer 2)	SUDHL10	M	1.54e-05
COc1ccc(OCc2nn(C)c3c2-c2cccc4c(CCCOc5cccc6ccccc56)c(C(=O)O)n(c24)CCCCOC3)cc1 (single isomer, unassigned; enantiomer 1) [Example 320]	SUDHL10	M	9.36e-06
Cn1nc(CN2CC3(COC3)C2)c2c1COCCCCn1c(C(=O)O)c(CCCOc3cccc4ccccc34)c3cccc-2c31 (single isomer, unassigned; enantiomer 2) [Example 345]	SUDHL10	M	5.68e-06
